Values from ChEMBL document CHEMBL3886467

- Assay Target: WD repeat-containing protein 5 (Homo sapiens)
pIC50: −log10 of the molar value.
Experimental Endpoint: pIC50

### Prompt Entry under review: "CCC(CC)(NC(=O)C(C)C)C(=O)N[C@@H](CCCNC(=N)N)C(=O)NC1(C(=O)NC(c2ccc(Cl)cc2)c2ccc(Cl)cc2)CCCC1" . Reported pIC50?
### Response > 5.52

Now look at this one.
### Prompt For the compound "CCC(CC)(NC(=O)C(C)C)C(=O)N[C@@H](CCCNC(=N)N)C(=O)N(C)C" , what pIC50 is on record?
### Response < 4.52
